Attribute: abundance fitness
B1: Triacylglycerol hydrolase DDHD2, residues 389 to 447; numbered along this chain, O94830 (parent)
chain: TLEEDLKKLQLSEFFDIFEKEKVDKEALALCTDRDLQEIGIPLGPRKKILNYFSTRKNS

Variants of: B1
Assay: abundance fitness (aPCA) (normalised: wild type 0, dead -1); higher = more abundant; growth selection in yeast, the domain comes from the species named
Conditions: Homo sapiens
assayReadout: abundance fitness

In [3]: df
Out[3]:
    sequencechange  valuereported
 0            S59E          0.075
 1            V23Y          0.451
 2            R34Y          0.367
 3            I41D         -0.384
 4            T55I          0.122
 5            F14P         -0.581
 6             K7T         -0.196
 7            L36F         -0.797
 8            Q37R         -0.302
 9            P45V          0.411
10            D35Y          0.207
11            Q37S         -0.178
12            I39V         -0.052
13            E38I         -0.294
14            K48Y         -0.566
15            R46L         -0.744
16             L6R         -0.833
17             L2G         -0.607
18            N51C         -0.323
19            E26G           0.27
20            F15N           0.05
21            L43C           0.47
22            K48I          0.104
23            F14A         -0.098
24             D5R         -0.568
25            E19L          0.054
26            T55L         -0.072
27             D5L          0.021
28            K25D         -0.027
29            R56C         -0.065
30             L2Y         -0.695
31            A27V          0.047
32            F14Q         -0.205
33            S59W         -0.074
34            K57S         -0.115
35            E21I          0.245
36            D16Y         -0.435
37             E4V         -0.629
38            K57Q         -0.076
39            L50D           0.14
40            L36P         -0.473
41            A29P           0.03
42            D24H         -0.587
43            T32P         -0.589
44            F53E          0.221
45            I49L         -0.077
